Data origin, for the record: ChEMBL document CHEMBL1817548

- target: CREB-binding protein/Histone acetyltransferase p300 (Homo sapiens) (UniProt Q09472+Q92793)
- Sequence (Q09472 whole entry, looked up): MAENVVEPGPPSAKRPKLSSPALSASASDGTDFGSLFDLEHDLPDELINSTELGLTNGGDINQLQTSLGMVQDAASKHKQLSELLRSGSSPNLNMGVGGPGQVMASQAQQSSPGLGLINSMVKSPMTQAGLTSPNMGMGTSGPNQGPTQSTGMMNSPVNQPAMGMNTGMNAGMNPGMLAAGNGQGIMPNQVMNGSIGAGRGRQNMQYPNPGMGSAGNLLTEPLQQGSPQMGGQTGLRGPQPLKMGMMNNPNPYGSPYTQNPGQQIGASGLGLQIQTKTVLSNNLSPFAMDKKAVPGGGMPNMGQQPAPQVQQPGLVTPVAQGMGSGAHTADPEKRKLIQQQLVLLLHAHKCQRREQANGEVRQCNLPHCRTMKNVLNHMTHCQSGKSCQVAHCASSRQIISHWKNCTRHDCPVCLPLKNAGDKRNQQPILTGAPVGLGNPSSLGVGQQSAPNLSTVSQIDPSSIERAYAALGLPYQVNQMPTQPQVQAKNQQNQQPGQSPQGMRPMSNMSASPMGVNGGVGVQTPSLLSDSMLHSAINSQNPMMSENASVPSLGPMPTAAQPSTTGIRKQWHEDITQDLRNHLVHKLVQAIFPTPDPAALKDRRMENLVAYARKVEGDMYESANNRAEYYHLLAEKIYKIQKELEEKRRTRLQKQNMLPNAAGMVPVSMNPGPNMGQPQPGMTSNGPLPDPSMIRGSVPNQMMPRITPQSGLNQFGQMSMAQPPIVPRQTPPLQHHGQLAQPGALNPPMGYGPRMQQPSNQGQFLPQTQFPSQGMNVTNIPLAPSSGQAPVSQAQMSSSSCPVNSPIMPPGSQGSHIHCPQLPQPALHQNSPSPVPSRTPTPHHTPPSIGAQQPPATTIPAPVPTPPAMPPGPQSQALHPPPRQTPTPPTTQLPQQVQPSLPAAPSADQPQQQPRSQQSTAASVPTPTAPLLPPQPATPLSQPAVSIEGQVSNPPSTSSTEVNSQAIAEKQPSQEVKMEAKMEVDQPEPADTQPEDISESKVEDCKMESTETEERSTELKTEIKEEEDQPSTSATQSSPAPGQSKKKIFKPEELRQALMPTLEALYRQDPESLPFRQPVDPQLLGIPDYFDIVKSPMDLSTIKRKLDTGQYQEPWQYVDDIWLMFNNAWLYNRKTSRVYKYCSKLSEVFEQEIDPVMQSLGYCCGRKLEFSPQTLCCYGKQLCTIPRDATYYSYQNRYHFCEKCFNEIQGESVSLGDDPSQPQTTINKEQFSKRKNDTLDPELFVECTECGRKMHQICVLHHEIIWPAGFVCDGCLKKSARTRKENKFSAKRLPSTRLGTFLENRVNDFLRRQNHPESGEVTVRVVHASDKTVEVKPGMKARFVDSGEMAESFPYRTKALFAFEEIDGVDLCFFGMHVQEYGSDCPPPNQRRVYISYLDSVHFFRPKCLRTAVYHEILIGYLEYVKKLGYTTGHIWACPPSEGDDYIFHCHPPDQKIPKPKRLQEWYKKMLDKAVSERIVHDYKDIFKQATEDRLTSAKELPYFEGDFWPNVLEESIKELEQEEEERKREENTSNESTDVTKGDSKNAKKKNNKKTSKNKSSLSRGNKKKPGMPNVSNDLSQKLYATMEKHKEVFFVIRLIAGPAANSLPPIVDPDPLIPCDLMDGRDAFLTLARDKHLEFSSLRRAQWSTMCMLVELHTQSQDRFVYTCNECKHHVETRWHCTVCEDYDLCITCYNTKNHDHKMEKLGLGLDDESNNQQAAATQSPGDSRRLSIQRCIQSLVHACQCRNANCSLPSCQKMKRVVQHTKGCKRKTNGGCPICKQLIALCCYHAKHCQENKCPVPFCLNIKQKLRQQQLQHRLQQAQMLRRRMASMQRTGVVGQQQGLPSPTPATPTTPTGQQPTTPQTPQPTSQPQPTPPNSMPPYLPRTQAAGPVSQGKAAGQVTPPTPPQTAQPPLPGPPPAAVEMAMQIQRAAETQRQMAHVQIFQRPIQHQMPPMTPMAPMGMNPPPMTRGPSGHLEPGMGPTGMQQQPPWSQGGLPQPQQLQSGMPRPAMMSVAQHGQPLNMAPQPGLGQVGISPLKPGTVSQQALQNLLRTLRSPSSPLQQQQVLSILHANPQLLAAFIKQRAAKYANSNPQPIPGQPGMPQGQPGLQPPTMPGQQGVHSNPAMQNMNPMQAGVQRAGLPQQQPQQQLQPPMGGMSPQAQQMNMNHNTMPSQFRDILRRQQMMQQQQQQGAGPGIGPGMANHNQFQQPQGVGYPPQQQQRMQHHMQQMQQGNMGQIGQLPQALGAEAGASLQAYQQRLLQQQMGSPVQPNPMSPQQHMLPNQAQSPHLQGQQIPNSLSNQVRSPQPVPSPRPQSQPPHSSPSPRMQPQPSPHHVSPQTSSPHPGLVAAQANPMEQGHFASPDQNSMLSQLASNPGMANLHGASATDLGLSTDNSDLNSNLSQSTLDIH
- Sequence (Q92793 whole entry, looked up): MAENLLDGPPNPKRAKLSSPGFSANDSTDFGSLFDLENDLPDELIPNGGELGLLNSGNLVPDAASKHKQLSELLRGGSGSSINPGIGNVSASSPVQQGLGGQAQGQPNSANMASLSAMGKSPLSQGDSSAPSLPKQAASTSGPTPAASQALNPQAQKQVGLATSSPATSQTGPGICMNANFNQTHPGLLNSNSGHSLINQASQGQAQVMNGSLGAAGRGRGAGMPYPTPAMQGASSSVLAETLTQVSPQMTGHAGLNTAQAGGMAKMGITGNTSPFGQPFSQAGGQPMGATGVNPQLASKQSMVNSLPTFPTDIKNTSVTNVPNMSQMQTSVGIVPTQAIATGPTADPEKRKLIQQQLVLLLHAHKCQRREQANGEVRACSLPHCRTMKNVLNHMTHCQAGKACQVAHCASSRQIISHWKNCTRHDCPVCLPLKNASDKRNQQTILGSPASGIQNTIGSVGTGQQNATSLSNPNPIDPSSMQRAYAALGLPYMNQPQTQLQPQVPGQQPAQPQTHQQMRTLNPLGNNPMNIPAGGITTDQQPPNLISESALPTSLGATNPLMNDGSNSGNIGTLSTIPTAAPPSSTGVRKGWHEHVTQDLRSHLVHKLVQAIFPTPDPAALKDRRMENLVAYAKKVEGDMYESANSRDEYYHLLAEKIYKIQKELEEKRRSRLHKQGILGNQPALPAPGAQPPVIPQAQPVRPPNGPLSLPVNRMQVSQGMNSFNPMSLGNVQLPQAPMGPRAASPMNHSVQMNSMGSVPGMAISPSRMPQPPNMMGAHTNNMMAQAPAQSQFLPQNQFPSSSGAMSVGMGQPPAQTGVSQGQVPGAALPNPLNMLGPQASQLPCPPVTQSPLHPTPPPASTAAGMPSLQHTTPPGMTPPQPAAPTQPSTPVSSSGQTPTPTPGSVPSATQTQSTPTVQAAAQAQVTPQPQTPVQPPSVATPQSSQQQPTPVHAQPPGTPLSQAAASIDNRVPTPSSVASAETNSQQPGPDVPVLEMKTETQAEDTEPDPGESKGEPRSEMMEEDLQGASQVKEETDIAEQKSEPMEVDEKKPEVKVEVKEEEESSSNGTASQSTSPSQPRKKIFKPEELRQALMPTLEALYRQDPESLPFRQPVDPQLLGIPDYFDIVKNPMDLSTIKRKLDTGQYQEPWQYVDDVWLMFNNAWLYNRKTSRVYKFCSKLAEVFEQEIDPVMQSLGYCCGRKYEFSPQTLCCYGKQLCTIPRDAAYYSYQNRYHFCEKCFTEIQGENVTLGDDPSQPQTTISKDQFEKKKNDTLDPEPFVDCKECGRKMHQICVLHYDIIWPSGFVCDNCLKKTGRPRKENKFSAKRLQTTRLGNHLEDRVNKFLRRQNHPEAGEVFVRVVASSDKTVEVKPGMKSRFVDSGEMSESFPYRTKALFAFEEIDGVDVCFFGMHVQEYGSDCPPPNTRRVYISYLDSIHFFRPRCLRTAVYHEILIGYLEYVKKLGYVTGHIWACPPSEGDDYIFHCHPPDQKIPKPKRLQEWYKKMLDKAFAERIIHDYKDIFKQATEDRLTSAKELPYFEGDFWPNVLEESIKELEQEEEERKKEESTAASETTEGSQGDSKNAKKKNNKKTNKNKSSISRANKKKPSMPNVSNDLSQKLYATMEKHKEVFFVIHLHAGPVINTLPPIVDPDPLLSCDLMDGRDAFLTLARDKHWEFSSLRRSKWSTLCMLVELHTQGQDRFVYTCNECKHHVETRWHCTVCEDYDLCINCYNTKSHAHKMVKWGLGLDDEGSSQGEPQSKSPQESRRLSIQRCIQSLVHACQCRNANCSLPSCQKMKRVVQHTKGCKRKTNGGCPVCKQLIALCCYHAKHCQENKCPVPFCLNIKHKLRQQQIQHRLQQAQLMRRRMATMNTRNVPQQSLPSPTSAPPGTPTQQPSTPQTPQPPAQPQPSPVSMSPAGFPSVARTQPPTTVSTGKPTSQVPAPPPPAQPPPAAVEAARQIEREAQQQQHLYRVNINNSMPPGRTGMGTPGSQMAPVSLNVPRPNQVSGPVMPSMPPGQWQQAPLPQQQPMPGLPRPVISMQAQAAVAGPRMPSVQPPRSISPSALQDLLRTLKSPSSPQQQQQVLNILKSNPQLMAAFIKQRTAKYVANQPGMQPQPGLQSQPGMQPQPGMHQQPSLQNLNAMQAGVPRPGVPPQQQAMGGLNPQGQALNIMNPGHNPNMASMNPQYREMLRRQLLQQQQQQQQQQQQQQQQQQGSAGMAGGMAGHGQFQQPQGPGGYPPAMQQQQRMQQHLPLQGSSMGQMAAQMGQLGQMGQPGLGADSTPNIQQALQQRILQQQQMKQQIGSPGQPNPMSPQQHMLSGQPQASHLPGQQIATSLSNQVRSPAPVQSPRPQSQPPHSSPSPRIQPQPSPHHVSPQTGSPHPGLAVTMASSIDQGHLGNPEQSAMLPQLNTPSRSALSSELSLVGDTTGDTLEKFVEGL
- protocol.text: Inhibition of recombinant human p300/CBP using [3H]-acetyl CoA at 50 uM after 2 hrs by scintillation counting relative to control
- Format: protein assay
Active and inactive are the calls of the source. The calls are words filed in the database; no cut-off is given here.
Classes used: active, inactive

O=C(NCCSSCCNC(=O)/C(Cc1cc(Br)c(O)c(Br)c1)=N/O)/C(Cc1cc(Br)c(O)c(Br)c1)=N/O ... inactive
O=C(NCCSSCCNC(=O)/C(Cc1ccc(O)cc1)=N/O)/C(Cc1ccc(O)cc1)=N/O ... inactive
O=C(NCCSSCCNC(=O)/C(Cc1ccc(O)c(F)c1)=N/O)/C(Cc1ccc(O)c(F)c1)=N/O ... inactive
O=C(NCCSSCCNC(=O)/C(Cc1ccccc1)=N/O)/C(Cc1ccccc1)=N/O ... inactive
O=C(NCCSSCCNC(=O)/C(Cc1ccc(O)c(Br)c1)=N/O)/C(Cc1ccc(O)c(Br)c1)=N/O ... inactive
O=C(NCCSSCCNC(=O)/C(Cc1cccc(O)c1)=N/O)/C(Cc1cccc(O)c1)=N/O ... inactive
O=C(NCCSSCCNC(=O)/C(Cc1ccc(O)c(Cl)c1)=N/O)/C(Cc1ccc(O)c(Cl)c1)=N/O ... inactive
O=C(CCc1ccc(O)c(Br)c1)NCCSSCCNC(=O)CCc1ccc(O)c(Br)c1 ... inactive
O=C(NCCSSCCNC(=O)/C(Cc1ccc(O)c(I)c1)=N/O)/C(Cc1ccc(O)c(I)c1)=N/O ... inactive
C=CC/C=C\C/C=C\CCCCCCCc1cccc(O)c1C(=O)O ... active
